B1: Homeobox protein SIX3, residues 212 to 262; numbered along this chain, O95343 (parent)
chain: CFKERTRSLLREWYLQDPYPNPSKKRELAQATGLTPTQVGNWFKNRRQRDR

Variants of: B1
Experiment: abundance fitness (aPCA) (normalised: wild type 0, dead -1); higher = more abundant; growth selection in yeast, the domain comes from the species named
Conditions: Homo sapiens
Each entry falls in a class defined on abundance fitness; the bands are LOW = under -0.4, MEDIUM = from -0.4 up to -0.2, HIGH = -0.2 and over

[
  {
    "MUTATION_LABEL": "T37H",
    "GROUP": "HIGH"
  },
  {
    "MUTATION_LABEL": "Q38I",
    "GROUP": "LOW"
  },
  {
    "MUTATION_LABEL": "A31S",
    "GROUP": "HIGH"
  },
  {
    "MUTATION_LABEL": "W42A",
    "GROUP": "LOW"
  },
  {
    "MUTATION_LABEL": "P36R",
    "GROUP": "MEDIUM"
  },
  {
    "MUTATION_LABEL": "G33Y",
    "GROUP": "LOW"
  },
  {
    "MUTATION_LABEL": "K25Q",
    "GROUP": "HIGH"
  },
  {
    "MUTATION_LABEL": "P36G",
    "GROUP": "LOW"
  },
  {
    "MUTATION_LABEL": "K24E",
    "GROUP": "MEDIUM"
  },
  {
    "MUTATION_LABEL": "T37W",
    "GROUP": "LOW"
  },
  {
    "MUTATION_LABEL": "A31K",
    "GROUP": "HIGH"
  },
  {
    "MUTATION_LABEL": "R26V",
    "GROUP": "HIGH"
  }
]
